Tested on: CP256
experimentSummary: qHTS profiling for inhibitors of Plasmodium falciparum proliferation (AID 504749); further: nearly all actives have a fitted effect of over 60% in size
particulars: P. falciparum in erythrocytes, SYBR Green DNA, 72 h; series mostly up to 28.7 µM
Results filed as inconclusive are left out. Activity calls are given as the source filed them. The call rests on the fitted dose curve; in most records, active means well fitted inhibition curve with a large enough effect; inconclusive means small, poorly fitted or top-dose-only effect; inactive means flat fitted curve, though single readings scatter.
Labels: True for active, False for inactive

>>> assignedlabel("CCN(CC)CC(=O)Nc1c(C)cccc1C")
"False"
>>> assignedlabel("O=C(O)CN(CCN(CC(=O)O)CC(=O)O)CCN(CC(=O)O)CC(=O)O")
"True"
>>> assignedlabel("O=C1CC2(CCCC2)CC(=O)N1CCCCN1CCN(c2ncccn2)CC1")
"False"
>>> assignedlabel("CC(=O)OCC1=C(C(=O)O)N2C(=O)[C@@H](NC(=O)Cc3cccs3)[C@H]2SC1")
"False"
>>> assignedlabel("O=C(O)CCCCCCCC(=O)O")
"False"
>>> assignedlabel("CNC1(C)C2CCC(C2)C1(C)C (stereo not drawn)")
"False"
>>> assignedlabel("CC(=O)Oc1cc(C(C)C)c(OCCN(C)C)cc1C")
"False"
>>> assignedlabel("CCN1CCC[C@H]1CNC(=O)c1c(O)c(Cl)cc(Cl)c1OC")
"False"
>>> assignedlabel("C[N+](C)(C)CCOC(N)=O")
"False"
>>> assignedlabel("CCCCNc1ccc(C(=O)OCCN(C)C)cc1")
"False"
>>> assignedlabel("COC(=O)C1=C(C)NC(C)=C(C(=O)OC(C)(C)CN(C)CCC(c2ccccc2)c2ccccc2)C1c1cccc([N+](=O)[O-])c1 (stereo not drawn)")
"True"
>>> assignedlabel("CCN(CC)CCOCCOC(=O)C1(c2ccccc2)CCCC1")
"True"
>>> assignedlabel("CCCCNC(=O)NS(=O)(=O)c1ccc(C)cc1")
"False"
>>> assignedlabel("Nc1ncn([C@@H]2O[C@H](CO)[C@@H](O)[C@H]2O)c(=O)n1")
"False"
>>> assignedlabel("NCCCNCCSP(=O)(O)O")
"False"
>>> assignedlabel("CC(=O)Nc1nnc(S(N)(=O)=O)s1")
"False"
>>> assignedlabel("NC(N)=NC(=O)Cc1c(Cl)cccc1Cl")
"True"
>>> assignedlabel("O=C(O)CP(=O)(O)O")
"False"
